Measured koff values are reported for all entries that follow.
Target: T1, human LAIR-1-ECD (human, UniProt Q6GTX8 22-165)
T1 construct: Recombinant, expressed in mammalian cells; also called extracellular region of human LAIR-1
T1 chain: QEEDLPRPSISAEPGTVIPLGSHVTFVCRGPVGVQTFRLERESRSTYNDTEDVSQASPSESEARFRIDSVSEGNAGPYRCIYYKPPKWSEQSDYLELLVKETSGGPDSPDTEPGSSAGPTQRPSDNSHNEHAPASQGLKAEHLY
Assay: SPR (Biacore) as in Example 2
Form entry: value (s⁻¹) — number only.

Look over these answered cases.
binder="humanized anti-LAIR-1 antibody Hz47H1.v4 (antibody, human IgG1, kappa, N297G, V domains shown, Humanized 47H1 with reengineered VH CDR2 and VL CDR2) VH: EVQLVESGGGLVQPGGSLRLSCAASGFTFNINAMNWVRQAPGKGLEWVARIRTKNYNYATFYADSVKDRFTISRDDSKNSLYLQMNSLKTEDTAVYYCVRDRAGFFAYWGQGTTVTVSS VL: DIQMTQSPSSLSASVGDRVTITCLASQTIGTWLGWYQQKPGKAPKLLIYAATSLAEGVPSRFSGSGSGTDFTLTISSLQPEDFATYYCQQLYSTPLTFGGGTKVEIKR" measurement_unit=s⁻¹ result_number=0.0006
binder="anti-LAIR-1 antibody ch62G10 (antibody, V domains shown, The prefix 'ch' is not defined) VH: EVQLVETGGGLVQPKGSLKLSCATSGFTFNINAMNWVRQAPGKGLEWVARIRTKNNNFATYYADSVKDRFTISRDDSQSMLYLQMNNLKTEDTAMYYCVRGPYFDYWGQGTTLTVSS VL: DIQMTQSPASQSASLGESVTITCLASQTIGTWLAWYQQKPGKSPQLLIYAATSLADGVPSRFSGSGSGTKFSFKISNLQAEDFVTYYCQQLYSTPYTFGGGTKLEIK" measurement_unit=s⁻¹ result_number=0.00069
binder="anti-LAIR-1 antibody ch47H1 (antibody, V domains shown, The prefix 'ch' is not defined; detected with anti-human Fc secondary antibody) VH: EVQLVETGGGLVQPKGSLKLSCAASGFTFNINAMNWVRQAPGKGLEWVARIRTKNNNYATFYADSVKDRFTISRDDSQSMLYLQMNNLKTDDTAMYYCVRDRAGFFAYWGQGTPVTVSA VL: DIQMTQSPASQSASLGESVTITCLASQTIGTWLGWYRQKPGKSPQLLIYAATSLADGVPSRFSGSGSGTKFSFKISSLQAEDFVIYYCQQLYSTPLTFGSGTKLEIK" measurement_unit=s⁻¹ result_number=0.00051

Shift focus to the following entry.
Q. Tell me measured koff for humanized anti-LAIR-1 antibody Hz62G10.v1 (antibody, human IgG1, kappa, N297G, V domains shown, Humanized 62G10) VH: EVQLVESGGGLVKPGGSLRLSCAASGFTFNINAMNWVRQAPGKGLEWVARIRTKNNNFATYYADSVKDRFTISRDDSKNTLYLQMNSLKTEDTAVYYCVRGPYFDYWGQGTLVTVSS VL: DIQMTQSPSSLSASVGDRVTITCLASQTIGTWLAWYQQKPGKAPKLLIYAATSLADGVPSRFSGSGSGTDFTLTISSLQPEDFATYYCQQLYSTPYTFGGGTKVEIKR please.
A. 0.00079

The reported measurements were obtained from patent US20220041711A1.
